Target: Sialic acid-binding Ig-like lectin 9 (Homo sapiens)
Experiment: Hs-Siglec9 ALPHAscreen SOP 20170721
Parameters: scale not given: direction of the effect not stated beside the values
Settings: 10 µM
measuredProperty: Percent Effect (%)
Quick reminder: number only, in %, skip the unit.

Query string: Field: Percent Effect (Sialic acid-binding Ig-like lectin 9 (Homo sapiens)). Entry: COc1c(CNC2CCSc3ccc(F)cc32)c(C)nn1C (stereo unspecified)
Result string: 7.38

Query string: Try Cc1cc(-c2nn(C)c(Cl)c2CN2CCOCC(O)C2)no1 (stereo unspecified) next.
Result string: 10

Query string: Try Cc1cnn(CC2CCCCN2CC(=O)Nc2c(C)n[nH]c2C)c1 (stereo unspecified) next.
Result string: 0.215

Query string: Try CC(C)CC(=O)N1C[C@@H]2CCN(c3ncccn3)C[C@@H]2C1 next.
Result string: -0.117

Query string: Try Cc1nc(C2CCCN2C(=O)c2cnns2)no1 (stereo unspecified) next.
Result string: 4.23

Query string: Try CS(=O)(=O)NCC1CCCN(C(=O)COc2ccc(F)cc2)C1 (stereo unspecified) next.
Result string: -7.96

====

System: Trypanosoma cruzi
Assay: Trypanosoma cruzi phosphomannomutase and mannose-1-phosphate guanylyltransferase assay
Format: functional
Set-up: scale not given: direction of the effect not stated beside the values
Details: 10 µM
measuredProperty: Percent Effect
A complete answer gives the number and then names the unit.

Query string: What does the data say about its Percent Effect? Entry: O=C(CCCNC(=O)C1CC1)Nc1cnn(-c2ccccc2Cl)c1
Result string: 7.33%

Query string: Try CNC(=O)C1(CCCc2cccnc2)CCCCN1 (configuration not stated) next.
Result string: 3.95%

Query string: Try Cc1cccc(C(=O)N2CCCCC2c2ccc(CN(C)C)cc2)n1 (configuration not stated) next.
Result string: 5.92%

Query string: Try CN(CC1COc2ccccc2O1)C(=O)NCCCn1cncn1 (configuration not stated) next.
Result string: 2.63%

Query string: Try COC1CC2(CCN(Cc3ccc4c(c3)OCO4)CC2)C1 next.
Result string: -2.63%

Query string: Try COc1c(C2CCCN2Cc2c(C)noc2C)c(C)nn1C (configuration not stated) next.
Result string: 5.82%

Query string: Try CCc1nc(CN(C(C)=O)C2CCN(Cc3cnc(C)cn3)C2)no1 (configuration not stated) next.
Result string: -3.31%

Query string: Try COCCN1C(=O)CCC12CCN(C(=O)NC(C)C)CC2 next.
Result string: -0.938%

Query string: Try COc1ccc(F)cc1CN1CCCC(c2cc(C(N)=O)[nH]n2)C1 (configuration not stated) next.
Result string: 1.81%

Query string: Try O=C(c1cccc(NCCO)c1)N1CCOCC1 next.
Result string: -2.46%

Query string: Try CC(O)CN1CCN(C(=O)c2cn(-c3ccccc3Cl)nn2)CC1 (configuration not stated) next.
Result string: 2.44%

Query string: Try COc1ccc(NC(=O)Cn2nc(C)c(C)cc2=O)cc1OC next.
Result string: 5.79%

====

Target: Protein translocase subunit SecA (Escherichia coli (strain K12))
Assay: Assay to Identify E. coli SecA ATPase Inhibitors
Format: functional
Set-up: scale not given: direction of the effect not stated beside the values
Conditions: 30 µM
Potency and affinity values are given separately.
Give measured Percent Effect for each item. Keep answers brief.
Quick reminder: number only, in %, skip the unit.

Query string: What does the data say about its Percent Effect? Entry: COCC(=O)N1CC[C@@H](N2CCOCC2)[C@@H]1Cc1ccccc1
Result string: -3.93

Query string: Try Cc1cc(C)n(CC2CCCN2CC(=O)N(C)Cc2cnn(C)c2)n1 (stereo unspecified) next.
Result string: -5.54

Query string: Try CNC(=O)C1(c2cnccn2)CCCN1C(=O)c1ccn(C)n1 (stereo unspecified) next.
Result string: -5.86

Query string: Try Cc1cccc(CN2C[C@@H]3CN(C(=O)[C@H]4CCCO4)C[C@@H]3C2=O)c1 next.
Result string: -6.54

Query string: Try Cc1ccc(CC(=O)N2CCCCC2c2nc(C)cs2)cn1 (stereo unspecified) next.
Result string: -3.56

Query string: Try Cn1c(C2CC2)nc2c1CCN(CC(=O)Nc1nncs1)C2 next.
Result string: -2.25

Query string: Try CCOc1cccc2c1OCC(C(=O)NS(=O)(=O)Cc1ccccc1)=C2 next.
Result string: -2.71

Query string: Try O=C(Cn1cccnc1=O)NCCc1ccc2c(c1)OCCO2 next.
Result string: -2.08

Query string: Try CN(Cc1ccco1)C(=O)CN1CCCCC1Cn1cccn1 (stereo unspecified) next.
Result string: 1.65

Query string: Try O=C(c1ccoc1)N1CCC2(CC1)C(=O)Nc1ccccc12 next.
Result string: -2.34

Query string: Try CC(C)c1nc(CN2CCCN(Cc3nnc(C4CC4)o3)CC2)no1 next.
Result string: -2.61
